All values here come from PubChem BioAssay (NCI).

Tested on: U251 CNS
Assay remarks: NCI tumour cell line growth inhibition, 48 h
Recorded TGI values for a group of compounds are listed next.

Below: 2 compounds and their reported TGI.
[[record]]
compound_structure_string = "COc1cc(/C=C/C=C2\\CCC/C(=C\\C=C\\c3ccc(O)c(OC)c3)C2=O)ccc1O"
tested_system = "U251 CNS"
recorded_metric = "TGI"
assay_value = "> 100 µM"

[[record]]
compound_structure_string = "O=C(O)c1c([N+](=O)[O-])cc(C(F)(F)F)cc1[N+](=O)[O-]"
tested_system = "U251 CNS"
recorded_metric = "TGI"
assay_value = "> 100 µM"


Problem: Quick check: TGI of COc1ccc(C(=O)Nc2ccc(S(=O)(=O)NCC(=O)O)cc2)cc1 ?
Solution: > 100 µM

###

Test system: M14 melanoma
Assay remarks: NCI tumour cell line growth inhibition, 48 h; in the data active = GI50 below about 0.43 µM; inactive = the rest
Please reply with one of these outcomes: active, inactive

Please review the entries below; each comes with its answer.
[[record]]
compound = "CCCCCCCCCCCCOC1C(CNCC2OC3OC(C)(C)OC3C2NC(=O)Nc2ccc(C(F)(F)F)cc2)OC2OC(C)(C)OC21 (centres undefined)"
tested_system = "M14 melanoma"
answer_label = "inactive"

[[record]]
compound = "CCN1/C(=C/C=C/C=C/c2sc3ccccc3[n+]2CC)Sc2ccccc21"
tested_system = "M14 melanoma"
answer_label = "active"

[[record]]
compound = "O=C(Nc1ccc(Cl)cc1F)c1cc(F)ccc1O"
tested_system = "M14 melanoma"
answer_label = "inactive"


Problem: For Cc1c2cnccc2c(C)c2c1c1cc(C(=O)O)ccc1n2C , which call appears in the assay record?
Solution: inactive

###

Here the recorded TGI is given for each entry.
Tested on: SNB-75 CNS
Assay remarks: NCI tumour cell line growth inhibition, 48 h

[[record]]
molecule = "N#Cc1c(N)c2c(c(-c3ccccc3)c1-c1ccccc1)C(=O)N(Nc1ccccc1)C2=O"
assay_value = "> 100 µM"

[[record]]
molecule = "c1ccc(CCCNc2nnnc3ccccc23)cc1"
assay_value = "> 100 µM"

[[record]]
molecule = "C[n+]1c2ccccc2c(C(=O)NC(CCCN=C(N)N)C(=O)O)c2ccccc21 (stereo not given)"
assay_value = "> 100 µM"

[[record]]
molecule = "CCN(CC)C(=S)SC(=S)N(CC)CC"
assay_value = "99.2 µM"

[[record]]
molecule = "COc1ccc2c(c1)CCC(CN1CCN(CCOC(c3ccc(F)cc3)c3ccc(F)cc3)CC1)C2O (stereo not given)"
assay_value = "32.9 µM"

[[record]]
molecule = "O=C(c1ccccn1)c1nc(-c2ccc(Cl)c(Cl)c2)nc2ccc(Cl)cc12"
assay_value = "35 µM"

[[record]]
molecule = "C=CCOc1ccc(C2(c3ccc(OCC=C)cc3)C(=O)Nc3ccccc32)cc1"
assay_value = "> 10 µM"

[[record]]
molecule = "O=Nc1ccc(O)c2ncccc12"
assay_value = "8.48 µM"


Problem: Can you share its TGI? I mean this molecule: Cc1c2cnccc2c(C)c2c1c1cc(C(=O)O)ccc1n2C
Solution: 2.53 µM

Problem: So what's the measured TGI for this one? C=C1C(=O)OC2/C=C(\C)C(=O)CC3OC(C)(C)OC3(C)CC(OC(=O)/C(C)=C/C)C12 (stereo not given)
Solution: > 72.9 µM

Problem: Param item = COc1ccc(/C=N/NC(=O)c2ccccc2Nc2ccccc2C(=O)N/N=C/c2ccc(OC)cc2)cc1 ; retrieve measured TGI.
Solution: > 100 µM

Problem: Data request, read-out TGI, for C=CCC(N[C@@H](CO)c1ccccc1)c1ccccn1 (stereo not given in full)
Solution: > 100 µM

Problem: Which TGI is listed for CC(C)[C@](O)(C(=O)OCC1=CC[N+]2([O-])CC[C@@H](O)[C@@H]12)[C@H](C)O (stereo not given in full) ?
Solution: > 10000 µM

Problem: Reported TGI for CCOC(=O)NC(Nc1ccc(F)c(F)c1)(C(=O)OCC)C(F)(F)F (stereo not given) : what is it?
Solution: > 100 µM

Problem: GET /values?readout=TGI&item= CN(C)Cc1cc(C(=O)/C=C/c2ccc(Br)cc2)cc(CN(C)C)c1O
Solution: 35.3 µM

Problem: So what does the record say about TGI for COC(=O)c1ccc(/C=C2\Cc3ccccc3C2=O)cc1 ?
Solution: > 100 µM

Problem: # input molecule: COc1cc(OC)cc(-c2ccc(-c3ccc(C(=N)N)s3)s2)c1 ; wanted: its TGI
Solution: 2.5 µM

###

TGI values for the compounds below.
Tested on: SN12C renal
Assay remarks: NCI tumour cell line growth inhibition, 48 h

[[record]]
compound = "CC(=O)Nc1ccc(-c2nc3ccccc3s2)cc1Cl"
assay_value = "> 100 µM"

[[record]]
compound = "CC(C)=CCc1c(O)ccc2c1OC1c3ccc(O)c(CC=C(C)C)c3OCC21 (centres undefined)"
assay_value = "30.3 µM"

[[record]]
compound = "C/C(=C1/N=C(c2ccccc2)OC1=O)c1ccc(C)cc1"
assay_value = "> 100 µM"


Problem: What value of measured TGI is listed for NC1=NN(c2ccccc2)C(=O)C1/C(=N\NC(=O)c1cc2ccccc2cc1O)C(=O)Nc1nc([N+](=O)[O-])cs1 (centres undefined) ?
Solution: > 100 µM

Problem: Item C=CCOc1ccc(C2(c3ccc(OCC=C)cc3)C(=O)Nc3ccccc32)cc1 has what recorded TGI?
Solution: > 10 µM

Problem: Value lookup for TGI; key = CC1=C(C(=O)NNC(=O)C(N)=O)CC(C(=O)NNC(=O)C(N)=O)=C(C)N1
Solution: > 100 µM

Problem: Name the recorded TGI for CC(C)Oc1c(C2(c3ccccc3O)SCCCS2)c(=O)c1=O .
Solution: > 100 µM

###

Test system: MALME-3M melanoma
Assay remarks: NCI tumour cell line growth inhibition, 48 h
Recorded metric: TGI

[[record]]
compound = "N#CC(c1ccccc1)N(CCc1ccccc1)C(=O)c1ccccc1 (stereo not drawn)"
assay_value = "> 100 µM"


Problem: Data request, read-out TGI, for CN1C(=O)N(C)C2C1NN=c1s/c(=C\c3c[nH]c4ccccc34)c(=O)n12 (stereo not drawn)
Solution: > 100 µM

Problem: Requested read-out: TGI. Entry: Cc1nc2c(=O)n(C)c(=O)nc-2n(CCO)c1C
Solution: > 100 µM

###

Quick list: TGI per entry.
System: TK-10 renal
Assay remarks: NCI tumour cell line growth inhibition, 48 h

Below are worked cases with known answers.
[[record]]
compound = "COc1ccc(/C=N/NC(=O)c2ccccc2Nc2ccccc2C(=O)N/N=C/c2ccc(OC)cc2)cc1"
recorded_metric = "TGI"
assay_value = "> 100 µM"

[[record]]
compound = "COc1cc(C2=C(C)[C@@H]3CN(CC=C3c3ccc(Cl)cc3)C2)c(S(=O)(=O)O)cc1OC"
recorded_metric = "TGI"
assay_value = "> 100 µM"

[[record]]
compound = "CCN(CC)C(=S)SC(=S)N(CC)CC"
recorded_metric = "TGI"
assay_value = "> 100 µM"

[[record]]
compound = "Cc1cccc(Cl)c1NC(N)=S"
recorded_metric = "TGI"
assay_value = "> 100 µM"

[[record]]
compound = "NC1=NN(c2ccccc2)C(=O)C1/C(=N\\NC(=O)c1cc2ccccc2cc1O)C(=O)Nc1nc([N+](=O)[O-])cs1 (stereo not drawn)"
recorded_metric = "TGI"
assay_value = "> 100 µM"


Problem: Item under review: CC(C)(C)C1(c2ccc(C3(c4ccccc4)Oc4ccccc4S3)[nH]2)Oc2ccccc2S1 (stereo not drawn) . Reported TGI?
Solution: > 100 µM

Problem: Could you tell me which TGI is on file for O=S(Nc1ccccc1)c1ccc(-c2ccccc2)cc1 (stereo not drawn) ?
Solution: > 100 µM

Problem: Fill in the blank: the reported TGI of CCN(CC)CCOc1ccc(N2Cc3ccccc3C2=O)cc1 is ____.
Solution: > 10 µM

Problem: Which TGI value belongs to O=[N+]([O-])c1cc2c(cc1O)[nH]c1cccc([N+](=O)[O-])c12 ?
Solution: > 100 µM

Problem: Fill in the blank: the reported TGI of CC1=C(C(=O)NNC(=O)C(N)=O)CC(C(=O)NNC(=O)C(N)=O)=C(C)N1 is ____.
Solution: > 100 µM

Problem: Could you tell me which TGI is on file for O=C1CCc2nc3ncccc3cc2C1 ?
Solution: > 100 µM

Problem: Fill blank: measured TGI of the compound O=C(c1ccco1)c1ccccc1C(=O)c1ccco1 is ____.
Solution: > 100 µM

Problem: Would you mind telling me what TGI value was observed for CC1(C)C(=O)N(O)C(C)(C)N1N=O ?
Solution: > 10 µM

###

System: NCI-H23 lung
Assay remarks: NCI tumour cell line growth inhibition, 48 h
Reported values of GI50 for individual entries

[[record]]
molecule = "COc1cc(/C=C2\\CCCC3C2=Nc2ccccc2NC3c2cc(OC)c(OC)c(OC)c2)cc(OC)c1OC (centres undefined)"
tested_system = "NCI-H23 lung"
assay_value = "2.15 µM"

[[record]]
molecule = "COc1ccc2[nH]c(-c3ccccc3)c(C=C(C#N)C#N)c2c1"
tested_system = "NCI-H23 lung"
assay_value = "4.08 µM"

[[record]]
molecule = "CCCCCCCCCCCCOC1C(CNCC2OC3OC(C)(C)OC3C2NC(=O)Nc2ccc(C(F)(F)F)cc2)OC2OC(C)(C)OC21 (centres undefined)"
tested_system = "NCI-H23 lung"
assay_value = "8.78 µM"


Problem: # query: GI50 of entry COc1ccc(S(=O)(=O)NC2=NCCN2C(=S)SN2CCn3c2nsc3=S)cc1OC
Solution: 22.4 µM

Problem: Recorded GI50 for C=CCC(N[C@@H](CO)c1ccccc1)c1ccccn1 (some centres undefined) , please?
Solution: 60.2 µM

Problem: Entry O=C(CCc1ccco1)NC1CCN(CC2(c3ccc(Cl)cc3)CCC2)CC1 : reported GI50 = ?
Solution: 16.9 µM
